Tested on: M19-MEL
Assay: NCI tumour cell line growth inhibition, 48 h
Activity calls are given as the source filed them. Cut-off read from the data, not from the text of the source: active = GI50 up to about 1.1 µM and inactive = higher.
Experimental Endpoint: GI50

CCOC(=O)CC1COc2ccc3c(c21)OCO3 (stereo unspecified): > 100 µM (inactive)

Give GI50 for each of the items listed below.
1. CCCCCCCCCCCC(=O)OCC(C[As](=O)(O)O)OC(=O)CCCCCCCCCCC (stereo unspecified)
2. Nc1nc(Cl)cc(NCCCCCCCCCCNc2cc(Cl)nc(N)n2)n1
3. NC(C(=O)O)c1ccc(C(=O)O)cc1 (stereo unspecified)
4. CCOc1ccc(NC(=O)C(=O)CC(=O)c2c(C)[n+]([O-])c3ccccc3[n+]2[O-])cc1
5. C[C@@]1(Cc2ccccc2)C(=O)N2[C@@H](CO)C(c3ccccc3)O[C@]2(C)c2ccccc21 (stereo partly specified)
6. COC(=O)/C(=N/Nc1cccc(Cl)c1)C(C(=O)C(=O)Nc1cccc(Cl)c1C)c1nc2ccccc2nc1C (stereo unspecified)

Result:
1. 4.25 µM (inactive)
2. 7.4 µM (inactive)
3. > 100 µM (inactive)
4. > 100 µM (inactive)
5. > 100 µM (inactive)
6. 54 µM (inactive)

Give GI50 for each of the items listed below.
1. COc1c(Br)cc(Br)c(OC)c1-c1[nH]c(Br)c(Br)c1Br
2. O=c1c2ccccc2nc(-c2ccc(Br)cc2)n1NC1OC(CO)C(O)C(O)C1O (stereo unspecified)
3. NCCNC(=O)c1cccc2cc3ccccc3nc12
4. O=Cc1ccc(-c2cccs2)s1

Result:
["10.2 µM (inactive)", "> 100 µM (inactive)", "1.79 µM (inactive)", "> 100 µM (inactive)"]
